assay: Clearance in rat; assay type: ADME, organism-based; conditions: in vivo
Quantity Measured: log10 of clearance (log10 of the value in mL/min/kg)

| Substance Smiles | log10 of clearance |
| --- | --- |
| Cc1ccc(NC(=O)[C@H](COC2CCC2)Oc2ncnc3c2cnn3-c2ncccc2Cl)nc1 | 2.13 |
| COC[C@H](Oc1ncnc2c1cnn2-c1ncccc1Cl)C(=O)Nc1cnc(C)cn1 | 0.60 |
| CCOC[C@H](Oc1ncnc2c1cnn2-c1ccccc1Cl)C(=O)Nc1cnc(C)cn1 | 1.64 |
| COC[C@H](Oc1ncnc2c1cnn2-c1ncccc1Cl)C(=O)Nc1ccc(C)cn1 | 0.97 |
| Cc1cnc(NC(=O)[C@H](COC2CCC2)Oc2ncnc3c2cnn3-c2ncccc2Cl)cn1 | 1.34 |
| COC[C@H](Oc1ncnc2c1cnn2-c1ccccc1Cl)C(=O)Nc1ccc(C)cn1 | 0.58 |
| CCOC[C@H](Oc1ncnc2c1cnn2-c1ncccc1Cl)C(=O)Nc1ccc(C)cn1 | 1.72 |
| COCC[C@H](Oc1ncnc2c1cnn2-c1ncccc1Cl)C(=O)Nc1ccc(C)cn1 | 1.73 |
| COCC[C@H](Oc1ncnc2c1cnn2-c1ccccc1Cl)C(=O)Nc1ccc(C)cn1 | 1.57 |

====

target: Hexokinase-4 (Homo sapiens); experiment: Activity at glucokinase (unknown origin)
Sequence (P35557 whole entry): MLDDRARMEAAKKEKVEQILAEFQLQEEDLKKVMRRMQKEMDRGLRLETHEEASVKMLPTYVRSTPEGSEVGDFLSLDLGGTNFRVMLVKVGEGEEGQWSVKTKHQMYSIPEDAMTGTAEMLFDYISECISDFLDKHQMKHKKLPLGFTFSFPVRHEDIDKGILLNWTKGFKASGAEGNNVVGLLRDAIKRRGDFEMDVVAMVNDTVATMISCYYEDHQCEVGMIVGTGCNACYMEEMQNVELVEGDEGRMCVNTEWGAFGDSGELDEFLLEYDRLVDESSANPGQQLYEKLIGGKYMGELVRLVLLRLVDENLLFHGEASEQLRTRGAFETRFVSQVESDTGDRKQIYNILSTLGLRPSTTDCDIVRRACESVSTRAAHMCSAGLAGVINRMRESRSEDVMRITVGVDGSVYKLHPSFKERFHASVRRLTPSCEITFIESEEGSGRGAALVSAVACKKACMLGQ
pEC50: −log10 of the molar value.
Below: a set of entries, each annotated with reported pEC50.

| Substance Smiles | Measurement Target | pEC50 |
| --- | --- | --- |
| Cc1cnc(NC(=O)[C@H](COC2CCC2)Oc2ncnc3c2cnn3-c2ncccc2Cl)cn1 | Hexokinase-4 (Homo sapiens) | 6.80 |
| Cc1cnc(NC(=O)[C@H](COC(C)C)Oc2ncnc3c2cnn3-c2ccccc2Cl)cn1 | Hexokinase-4 (Homo sapiens) | 6.50 |
| CC(C)OC[C@H](Oc1ncnc2c1cnn2-c1ncccc1Cl)C(=O)Nc1ccccn1 | Hexokinase-4 (Homo sapiens) | 6.30 |
| CC(C)OC[C@H](Oc1ncnc2c1cnn2-c1ccccc1Cl)C(=O)Nc1ccc(C#N)cn1 | Hexokinase-4 (Homo sapiens) | 6.50 |
| CCOC[C@H](Oc1ncnc2c1cnn2-c1ncccc1Cl)C(=O)Nc1ccccn1 | Hexokinase-4 (Homo sapiens) | 6.30 |
| Cc1ccc(NC(=O)[C@H](COC2CCC2)Oc2ncnc3c2cnn3-c2ncccc2Cl)nc1 | Hexokinase-4 (Homo sapiens) | 6.80 |
| COCC[C@H](Oc1ncnc2c1cnn2-c1ncccc1Cl)C(=O)Nc1ccc(C)cn1 | Hexokinase-4 (Homo sapiens) | 6.80 |
| Cc1ccc(NC(=O)[C@H](COC(C)C)Oc2ncnc3c2cnn3-c2ccccc2Cl)nc1 | Hexokinase-4 (Homo sapiens) | 6.90 |
| CCOC[C@H](Oc1ncnc2c1cnn2-c1ncccc1Cl)C(=O)Nc1ccc(Cl)cn1 | Hexokinase-4 (Homo sapiens) | 6.50 |

====

experiment: Lipophilicity, log D of the compound; assay type: physicochemical; settings: octanol/water
Values of logD strictly less than 3 map to 1 (yes), and values of at least 3 map to 0 (no).

| Substance Smiles | Class Name |
| --- | --- |
| COC[C@H](Oc1ncnc2c1cnn2-c1ccccc1Cl)C(=O)Nc1ccc(C)cn1 | 0 (no) |
| Cc1cnc(NC(=O)[C@H](COC(C)C)Oc2ncnc3c2cnn3-c2ccccc2Cl)cn1 | 1 (yes) |
| CC(C)OC[C@H](Oc1ncnc2c1cnn2-c1ccccc1Cl)C(=O)Nc1ccc(F)cn1 | 0 (no) |
| CC(C)OC[C@H](Oc1ncnc2c1cnn2-c1ncccc1Cl)C(=O)Nc1ccc(C#N)cn1 | 1 (yes) |
| Cc1cnc(NC(=O)[C@H](COC2CCC2)Oc2ncnc3c2cnn3-c2ncccc2Cl)cn1 | 1 (yes) |
| CCOC[C@H](Oc1ncnc2c1cnn2-c1ncccc1Cl)C(=O)Nc1ccc(C#N)cn1 | 1 (yes) |
| Cc1ccc(NC(=O)[C@H](COC2CCC2)Oc2ncnc3c2cnn3-c2ncccc2Cl)nc1 | 0 (no) |
| CC(C)OC[C@H](Oc1ncnc2c1cnn2-c1ncccc1Cl)C(=O)Nc1ccc(Cl)cn1 | 0 (no) |
| CC(C)OC[C@H](Oc1ncnc2c1cnn2-c1ncccc1Cl)C(=O)Nc1ccccn1 | 1 (yes) |

Values from ChEMBL document CHEMBL3217683
